- SYSTEM_TESTED: Caspase-8 (Homo sapiens)
- Sequence (Q14790 217-374 limits assumed): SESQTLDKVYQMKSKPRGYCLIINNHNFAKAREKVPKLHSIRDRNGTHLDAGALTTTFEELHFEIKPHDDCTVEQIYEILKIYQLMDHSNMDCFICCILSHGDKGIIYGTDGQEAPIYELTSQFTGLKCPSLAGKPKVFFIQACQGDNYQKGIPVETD
- Sequence (Q14790 385-479 limits assumed): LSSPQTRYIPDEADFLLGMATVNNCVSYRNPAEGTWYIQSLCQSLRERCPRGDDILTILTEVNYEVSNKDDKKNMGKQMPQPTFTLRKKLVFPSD
pIC50: −log10 of the molar value.
VALUE_TYPE: pIC50

// known answers, use as guide
>>> numeric_value("C[C@H](NC(=O)c1cc(-c2cccc(Cl)c2)on1)C(=O)N[C@@H](CC(=O)O)C(=O)COc1c(F)c(F)cc(F)c1F [Example 10]")
7.79
>>> numeric_value("C[C@H](NC(=O)c1cc(-c2ccccc2)n[nH]1)C(=O)N[C@@H](CC(=O)O)C(=O)COc1c(F)c(F)cc(F)c1F [Example 4]")
7.93
>>> numeric_value("C[C@H](NC(=O)c1cc(-c2ccc(Cl)cc2)on1)C(=O)N[C@@H](CC(=O)O)C(=O)COc1c(F)c(F)cc(F)c1F [Example 6]")
7.70
>>> numeric_value("C[C@H](NC(=O)c1cc(-c2ccccc2F)n[nH]1)C(=O)N[C@@H](CC(=O)O)C(=O)COc1c(F)c(F)cc(F)c1F [Example 5]")
7.77

a. C[C@H](NC(=O)c1cc(-c2ccccc2Cl)on1)C(=O)N[C@H](CC(=O)O)C(=O)COc1c(F)c(F)cc(F)c1F [Example 18]
b. C[C@H](NC(=O)c1cc(-c2ccccc2Cl)no1)C(=O)N[C@@H](CC(=O)O)C(=O)COc1c(F)c(F)cc(F)c1F [Example 17]
c. C[C@H](NC(=O)c1cc(-c2ccccc2)no1)C(=O)N[C@@H](CC(=O)O)C(=O)COc1c(F)c(F)cc(F)c1F [Example 8]
Sequence the entries by pIC50, beginning with the highest number. Give me the labels in the order the question wants.
c, b, a

###

- SYSTEM_TESTED: Caspase-1 (Homo sapiens, UniProt P29466)
- Sequence (P29466 120-297 limits assumed): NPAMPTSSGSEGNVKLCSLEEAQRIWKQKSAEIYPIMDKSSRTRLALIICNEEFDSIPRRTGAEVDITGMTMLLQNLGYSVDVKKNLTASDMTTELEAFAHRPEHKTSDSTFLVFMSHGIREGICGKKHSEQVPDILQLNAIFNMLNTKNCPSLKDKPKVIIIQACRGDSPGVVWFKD
- Sequence (P29466 317-404 limits assumed): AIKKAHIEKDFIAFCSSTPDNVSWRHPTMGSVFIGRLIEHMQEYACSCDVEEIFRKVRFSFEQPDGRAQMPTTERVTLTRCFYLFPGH
pIC50: −log10 of the molar value.
VALUE_TYPE: pIC50

P. C[C@H](NC(=O)c1cc(-c2ccccc2)on1)C(=O)N[C@@H](CC(=O)O)C(=O)COc1c(F)c(F)cc(F)c1F
Q. C[C@H](NC(=O)c1cc(-c2ccccc2F)on1)C(=O)N[C@@H](CC(=O)O)C(=O)COc1c(F)c(F)cc(F)c1F
# returns the entry with the larger pIC50; inputs P and Q Kindly give the label for the entry you pick.
Q
(Q: 8.17, P: 7.85)

###

- EXPERIMENT_NOTES: Mouse pharmacokinetic study in plasma and liver after oral administration
- Type: in vivo, male C57BL/6J mice
- TEST_CONDITIONS: male, C57BL/6J, plasma, 2 h after oral (intragastric) administration, read-out: Plasma drug concentration
VALUE_TYPE: concentration at 2 h (nM)

a. C[C@H](NC(=O)C(=O)Nc1ccccc1C(C)(C)C)C(=O)N[C@@H](CC(=O)O)C(=O)COc1c(F)c(F)cc(F)c1F [IDN-6556, reference compound]
b. C[C@H](NC(=O)c1cc(-c2ccccc2Cl)on1)C(=O)N[C@@H](CC(=O)O)C(=O)COc1c(F)c(F)cc(F)c1F [Example 1]
Exercise: compare a and b ; which one has the greater concentration at 2 h? Indicate which entry you chose by stating its label.
b
(b: 112 nM, a: 10.9 nM)

Sourced from patent US11434212B2
